# ASSAY: Retardation factor of the compound using 1-BuOH-pyridine-AcOH-H2O at ratio of 30:20:6:24 as solvent system by thin layer chromatography
# Format: physicochemical
Listed below: Rf values for each entry.
Please reply with the number alone, leaving off any unit.

Here's what some known entries look like.
SUBSTANCE | RESULT_NUMBER
H-YSDGTFTSELSRLRDSARLQRLLQGLV-NH2 | 0.56
H-YHSDGTFTSELSRLRDSARLQRLLQGLV-NH2 | 0.52
H-HSDGTFTSELSRLRDSARLQRLLQGLV-NH2 | 0.58

Attention now turns to another entry.
Task: I'd like to know its Rf. The substance in question is "H-HSDGTYTSELSRLRDSARLQRLLQGLV-NH2"
Output: 0.56
